Data origin, for the record: patent US20250326748A1

tested on: SMN2 mRNA; test: Splicing RT-qPCR panel, SMN2 canonical junction (CJ) mRNA; type: cell-based, human; conditions: Homo sapiens, read-out: SMN2 CJ (decrease in CJ mRNA levels, IC50)
pIC50: −log10 of the molar value. Counter-ions that a name gives are not always drawn.
value-type: pIC50

Any idea what its pIC50 is? The compound is CN[C@@H]1CCN(c2cnc3nc(-c4cc(F)c5nc(C)cn5c4)ncc3c2)C1 [Compound 202]
> 7.00

Please report the recorded pIC50 for COc1nc(-c2cc(Cl)c3cc(N4C[C@H](C)N[C@@H](C)C4)cnc3n2)cn2cc(C)nc12 [Compound 403] .
6.00 to 7.00

Item CNC1CCN(c2cnc3nc(-c4cc5cn(C)nc5cc4O)cc(Cl)c3c2)C1 (stereo not shown) [Compound 213] has what recorded pIC50?
> 7.00

For the compound CCNC1CCN(c2cnc3nc(-c4cc5cn(C)nc5c(C)c4O)ccc3c2)C1 (stereo not shown) [Compound 122] , what pIC50 is on record?
> 7.00

For the compound shown here, Cc1c(O)c(-c2ccc3c(Cl)c(N4C[C@@H](C)N[C@@H](C)C4)cnc3n2)cc2cn(C)nc12 [Compound 390] , give the reported pIC50.
> 7.00

I am curious: what pIC50 value has been reported for CN[C@H]1CN(c2cnc3nc(-c4cc5cn(C)nc5c(C)c4O)ccc3c2)C[C@H]1C [Compound 125] ?
> 7.00

Quick one: pIC50 for Cc1c(O)c(-c2cc(Cl)c3cc(NC4CCNC4)cnc3n2)cc2cn(C)nc12 (stereo not shown) [Compound 146] ?
> 7.00

Would you kindly share the measured pIC50 for Cn1cc2cc(-c3ccc4cc(N5CC[C@@H](NC(C)(C)C)C5)cnc4n3)c(O)cc2n1 [Compound 199] ?
6.00 to 7.00

Requested field: pIC50. Item: Cc1cn2nc(-c3ccc4cc(N(C)C5CCNCC5)cnc4n3)cc(C)c2n1 [Compound 205]
6.00 to 7.00

// returns reported pIC50 for input CCN[C@H]1CCN(c2cnc3nc(-c4cc5cn(C)nc5cc4O)ccc3c2)C1 [Compound 311, hydrochloride]
> 7.00

Returns the measured pIC50 for the input compound. Input: Cn1cc2cc(-c3cnc4nc(N5CCNCC5)cc(Cl)c4c3)cc(F)c2n1 [Compound 101]
> 7.00

Quick check: pIC50 of Cn1cc2cc(-c3cc(Cl)c4cc(N5CCNCC5)cnc4n3)c(O)cc2n1 [Compound 102] ?
> 7.00

Reported pIC50 for CN(C)C1CCN(c2ccc3nc(-c4cc5cn(C)nc5c(F)c4O)cnc3c2)CC1 [Compound 360] : what is it?
> 7.00

Quick one: pIC50 of Cn1cc2cc(-c3cnc4nc(N5CCC(NC(C)(C)C)C5)ccc4c3)c(O)cc2n1 (stereo not shown) [Compound 133] ?
< 5.00

I am curious: what pIC50 value has been reported for Cn1cc2cc(-c3cc(Cl)c4cc(N5CCNC6(CC6)C5)cnc4n3)c(O)c(F)c2n1 [Compound 274] ?
> 7.00

What value of pIC50 has been reported for the following compound? Cc1c(O)c(-c2ccc3c(Cl)c(N4CCNCC4)cnc3n2)cc2cn(C)nc12 [Compound 278]
> 7.00

###

tested on: MYB mRNA; experiment: Splicing RT-qPCR assay, MYB canonical (CJ) and alternative (AJ) junction mRNA; format: cell-based, human; conditions: Homo sapiens, canonical junction mRNA, qPCR panel; read-out: MYB CJ (decrease in CJ mRNA levels, IC50)
Structures can show the parent of a compound that is named as a salt.
Give measured IC50 for each item. Keep answers brief.

Hi! What's the reported IC50 for CCN[C@@H]1CCN(c2cnc3nc(-c4cc5cn(C)nc5cc4O)ccc3c2)C1 [Compound 310, hydrochloride] on MYB mRNA?
< 100 nM

Param readout= IC50; system= MYB mRNA; entry= Cc1cn2nc(-c3cc(Cl)c4cc(N5CCNC6(CC6)C5)cnc4n3)cc(C)c2n1 [Compound 383] ; returns value.
100 to 1000 nM

Request - read-out IC50 | tested on MYB mRNA | compound Cn1cc2cc(-c3cc(Cl)c4cc(N5CC[C@@H](NC(C)(C)C)C5)cnc4n3)c(O)c(F)c2n1 [Compound 498]
100 to 1000 nM

MYB mRNA / IC50 / C[C@H]1CN(c2cnc3nc(-c4cc(F)c5nn(C)cc5c4)cc(Cl)c3c2)C[C@@H](C2CC2)N1 [Compound 288] : value?
100 to 1000 nM

Tell me reported IC50 for Cn1cc2cc(-c3cc(Cl)c4cc(N5CCNC6(CC6)C5)cnc4n3)c(O)c(F)c2n1 [Compound 274] , tested with MYB mRNA.
< 100 nM

Report IC50 for CN[C@H]1CCN(c2cnc3nc(-c4cc5cn(C)nc5c(C)c4O)cc(Cl)c3c2)C1.Cl [Compound 287] tested on MYB mRNA.
< 100 nM

Recall the recorded IC50 for Cc1c(O)c(-c2cc(Cl)c3cc(N4CCNC5(CC5)C4)cnc3n2)cc2cn(C)nc12 [Compound 381] with MYB mRNA and state it.
< 100 nM

Item: CN[C@H]1CCN(c2cnc3nc(-c4cc5cn(C)nc5c(C)c4O)ncc3c2)C1 [Compound 120] Test system: MYB mRNA Read-out: IC50 Value: ?
< 100 nM
